MEASURED ON: T1, human SIRPα v1 ECD recombinant protein (tag not given) (human, UniProt P78324 31-373)
T1 construct: extracellular domain; also called biotin labeled soluble human SIRPα v1 ECD recombinant protein; ELISA microplate coated human SIRPα v1 ECD
PROTOCOL: competitive ELISA, mFc-CD47 ECD on coated SIRPα v1 ECD
READOUT LABEL: TOP blocking (%)

BINDER | READOUT UNITS | VAL
hu025.021 (antibody, V domains shown, Humanized 025; also called hu025.21) VH: EVQLVQSGAEVKKPGATVKISCKVSGFNIKDYYMHWVQQAPGKGLEWIGRIDPEDAETKYAPKFQGRVTITADTSTNTAYMELSSLRSEDTAVYYCDRGLAYWGQGTLVTVSS VL: EIVLTQSPATLSLSPGERATLSCSASSSVSSSYLYWYQQKPGQAPKLWIYSTSNLASGIPARFSGSGSGTDYTLTISSLEPEDFAVYYCHQWSSYPYTFGQGTKLEIK | % | 97.7
hu025.033 (antibody, V domains shown, Humanized 025) VH: EVQLVQSGAEVKKPGATVKISCKVSGFNIKDYYMHWVQQAPGKGLEWIGRIDPEDAETKYAPKFQGRVTITADTSTDTAYMELSSLRSEDTAVYYCDRGLAYWGQGTLVTVSS VL: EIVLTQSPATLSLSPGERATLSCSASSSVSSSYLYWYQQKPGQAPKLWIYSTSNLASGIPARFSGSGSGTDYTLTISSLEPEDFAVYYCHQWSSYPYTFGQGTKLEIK | % | 97.2
025c (antibody, V domains shown, also called chimeric antibody 025c; parental antibody of 025c) VH: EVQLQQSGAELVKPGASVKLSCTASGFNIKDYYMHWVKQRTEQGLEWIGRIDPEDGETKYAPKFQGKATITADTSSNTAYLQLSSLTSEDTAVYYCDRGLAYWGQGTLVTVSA VL: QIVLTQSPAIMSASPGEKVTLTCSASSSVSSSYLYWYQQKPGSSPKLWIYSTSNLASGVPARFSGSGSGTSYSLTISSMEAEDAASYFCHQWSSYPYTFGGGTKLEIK | % | 97.5
hu025.023 (antibody, V domains shown, Humanized 025; also called hu025.23) VH: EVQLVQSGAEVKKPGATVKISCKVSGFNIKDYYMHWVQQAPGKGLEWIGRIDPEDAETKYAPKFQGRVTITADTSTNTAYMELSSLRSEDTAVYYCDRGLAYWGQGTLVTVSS VL: EIVLTQSPATLSLSPGERATLSCSASSSVSSSYLYWYQQKPGQAPKLWIYSTSNLASGIPARFSGSGSGTDFTLTISSLEPEDFAVYYCHQWSSYPYTFGQGTKLEIK | % | 97.2
hu025.059 (antibody, V domains shown, Humanized 025; also called hu025.59) VH: EVQLVQSGAEVKKPGATVKISCKASGFNIKDYYMHWVQQAPGKGLEWIGRIDPEDAETKYAPKFQGRVTITADTSTNTAYMELSSLRSEDTAVYYCDRGLAYWGQGTLVTVSS VL: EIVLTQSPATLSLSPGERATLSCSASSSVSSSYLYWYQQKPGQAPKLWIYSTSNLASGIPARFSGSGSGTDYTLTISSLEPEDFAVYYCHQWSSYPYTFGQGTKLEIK | % | 97.1
hu025.060 (antibody, V domains shown, Humanized 025; also called hu025.60) VH: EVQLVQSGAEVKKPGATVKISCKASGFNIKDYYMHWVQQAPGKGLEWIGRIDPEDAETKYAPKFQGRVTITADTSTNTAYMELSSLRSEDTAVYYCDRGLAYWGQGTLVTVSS VL: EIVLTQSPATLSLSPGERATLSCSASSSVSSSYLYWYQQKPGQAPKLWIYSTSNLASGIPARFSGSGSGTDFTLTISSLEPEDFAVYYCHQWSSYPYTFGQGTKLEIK | % | 95.2

src = patent US20250270315A1
